System: 3T3 fibroblast cells
Assay: In vitro phototoxicity assay (neutral red; UV light-treated vs dark control plates)
Type: cell-based
Conditions: dark control plate
Readings of Photo Toxicity Dark Tox50 for the listed compounds

Would you please look over these solved cases?
CNCCNC(=O)c1cccc(-c2ccc(O)c3c2C[C@H]2C[C@H]4[C@H](N(C)C)C(O)=C(C(N)=O)C(=O)[C@@]4(O)C(O)=C2C3=O)c1 = >143.16 µM
CN(C)Cc1ccc(-c2ccc(O)c3c2C[C@H]2C[C@H]4[C@H](N(C)C)C(O)=C(C(N)=O)C(=O)[C@@]4(O)C(O)=C2C3=O)[nH]1 = >147.66 µM
CN(C)[C@@H]1C(O)=C(C(N)=O)C(=O)[C@@]2(O)C(O)=C3C(=O)c4c(O)ccc(C(=O)CNCC(F)(F)F)c4C[C@H]3C[C@@H]12 = >151.65 µM
CN(C)[C@@H]1C(O)=C(C(N)=O)C(=O)[C@@]2(O)C(O)=C3C(=O)c4c(O)ccc(-c5cccc(CCCN)c5)c4C[C@H]3C[C@@H]12 = >200 µM
COCCN(C)CC(=O)c1ccc(O)c2c1C[C@H]1C[C@H]3[C@H](N(C)C)C(O)=C(C(N)=O)C(=O)[C@@]3(O)C(O)=C1C2=O = >154.09 µM

API: the following record is the query input.
// sample `CC(C)N(C)CC(=O)c1ccc(O)c2c1C[C@H]1C[C@H]3[C@H](N(C)C)C(O)=C(C(N)=O)C(=O)[C@@]3(O)C(O)=C1C2=O` , its Photo Toxicity Dark Tox50 was >149.87 µM

###

Readings of Photo Toxicity Dark Tox50 for the listed compounds
System: 3T3 fibroblast cells
Experiment: In vitro phototoxicity assay (neutral red; UV light-treated vs dark control plates)
Format: cell-based
Settings: dark control plate

// sample CN1CCN(C(=O)c2cccc(-c3ccc(O)c4c3C[C@H]3C[C@H]5[C@H](N(C)C)C(O)=C(C(N)=O)C(=O)[C@@]5(O)C(O)=C3C4=O)c2)CC1 [C] , its Photo Toxicity Dark Tox50 was >137.76 µM

###

Experiment: in vitro
Format: cell-based
Conditions: Chinese hamster, Cytotox. CHO-K1
Readings of IC50 at 24 h for the listed molecules

CC(C)N(CCNC(=O)c1cccc(-c2ccc(O)c3c2C[C@H]2C[C@H]4[C@H](N(C)C)C(O)=C(C(N)=O)C(=O)[C@@]4(O)C(O)=C2C3=O)c1)C(C)C [T] = 36.2 µM
CN1CCN(C(=O)c2cccc(-c3ccc(O)c4c3C[C@H]3C[C@H]5[C@@H](N(C)C)C(O)=C(C(N)=O)C(=O)[C@@]5(O)C(O)=C3C4=O)c2)CC1 [D] = > 131 µM
CN(C)CC(=O)Nc1cccc(-c2ccc(O)c3c2C[C@H]2C[C@H]4[C@H](N(C)C)C(O)=C(C(N)=O)C(=O)[C@@]4(O)C(O)=C2C3=O)c1 [K] = > 12.8 µM

// sample CN(C)[C@@H]1C(O)=C(C(N)=O)C(=O)[C@@]2(O)C(O)=C3C(=O)c4c(O)ccc(C(=O)CNCC(F)(F)F)c4C[C@H]3C[C@@H]12 [BT] , its IC50 at 24 h was > 47 µM

// sample CN(C)c1cc(-c2cccc(C(N)=O)c2)c(O)c2c1C[C@H]1C[C@H]3[C@H](N(C)C)C(O)=C(C(N)=O)C(=O)[C@@]3(O)C(O)=C1C2=O [CD] , its IC50 at 24 h was > 45.3 µM

// sample CN(C)[C@@H]1C(O)=C(C(N)=O)C(=O)[C@@]2(O)C(O)=C3C(=O)c4c(O)ccc(-c5coc(CN6CCCCC6)c5)c4C[C@H]3C[C@@H]12 [BF] , its IC50 at 24 h was > 42.9 µM

// sample CN(C)[C@@H]1C(O)=C(C(N)=O)C(=O)[C@@]2(O)C(O)=C3C(=O)c4c(O)ccc(-c5cccc(C(=O)NCCO)c5)c4C[C@H]3C[C@@H]12 [CK] , its IC50 at 24 h was > 14.7 µM

// sample CN(C)CCN(C)Cc1cccc(-c2ccc(O)c3c2C[C@H]2C[C@H]4[C@H](N(C)C)C(O)=C(C(N)=O)C(=O)[C@@]4(O)C(O)=C2C3=O)c1 [CT] , its IC50 at 24 h was > 126 µM

// sample CN(C)[C@@H]1C(O)=C(C(N)=O)C(=O)[C@@]2(O)C(O)=C3C(=O)c4c(O)ccc(C(=O)CNCc5ccco5)c4C[C@H]3C[C@@H]12 [CC] , its IC50 at 24 h was > 44.7 µM

// sample CC(=O)N1CCN(CC(=O)c2ccc(O)c3c2C[C@H]2C[C@H]4[C@H](N(C)C)C(O)=C(C(N)=O)C(=O)[C@@]4(O)C(O)=C2C3=O)CC1 [BS] , its IC50 at 24 h was > 145 µM

// sample COCc1cccc(-c2ccc(O)c3c2C[C@H]2C[C@H]4[C@H](N(C)C)C(O)=C(C(N)=O)C(=O)[C@@]4(O)C(O)=C2C3=O)c1 [DB] , its IC50 at 24 h was 13.2 µM

// sample CN(C)[C@H]1C(O)=C(C(N)=O)C(=O)[C@@]2(O)C(O)=C3C(=O)c4c(O)ccc(-c5cccc(CCCN6CCCCC6)c5)c4C[C@H]3C[C@@H]12 [BN] , its IC50 at 24 h was > 63 µM

// sample CCOC(=O)CCNC(=O)c1cccc(-c2ccc(O)c3c2C[C@H]2C[C@H]4[C@H](N(C)C)C(O)=C(C(N)=O)C(=O)[C@@]4(O)C(O)=C2C3=O)c1 [I] , its IC50 at 24 h was > 14.2 µM

// sample CN(C)[C@@H]1C(O)=C(C(N)=O)C(=O)[C@@]2(O)C(O)=C3C(=O)c4c(O)ccc(C(=O)Cn5ccnc5)c4C[C@H]3C[C@@H]12 [CF] , its IC50 at 24 h was > 49.9 µM

// sample CN1CCN(Cc2ccc(-c3ccc(O)c4c3C[C@H]3C[C@H]5[C@@H](N(C)C)C(O)=C(C(N)=O)C(=O)[C@@]5(O)C(O)=C3C4=O)o2)CC1 [AY] , its IC50 at 24 h was > 32 µM

// sample CN(C)CCCCNCc1cccc(-c2ccc(O)c3c2C[C@H]2C[C@H]4[C@H](N(C)C)C(O)=C(C(N)=O)C(=O)[C@@]4(O)C(O)=C2C3=O)c1 [CV] , its IC50 at 24 h was > 135 µM

// sample CC1CCN(CC(=O)c2ccc(O)c3c2C[C@H]2C[C@H]4[C@H](N(C)C)C(O)=C(C(N)=O)C(=O)[C@@]4(O)C(O)=C2C3=O)CC1 [BH] , its IC50 at 24 h was > 136 µM

// sample CN(C)[C@@H]1C(O)=C(C(N)=O)C(=O)[C@@]2(O)C(O)=C3C(=O)c4c(O)ccc(C(=O)CNCC(N)=O)c4C[C@H]3C[C@@H]12 [BZ] , its IC50 at 24 h was > 119 µM

// sample COc1ccc(-c2ccc(O)c3c2C[C@H]2C[C@H]4[C@H](N(C)C)C(O)=C(C(N)=O)C(=O)[C@@]4(O)C(O)=C2C3=O)cc1CNCC(N)=O [BE] , its IC50 at 24 h was > 10.8 µM

// sample COC(C)CNCC(=O)c1ccc(O)c2c1C[C@H]1C[C@H]3[C@H](N(C)C)C(O)=C(C(N)=O)C(=O)[C@@]3(O)C(O)=C1C2=O (stereo partly shown) [CA] , its IC50 at 24 h was > 146 µM

// sample CN(C)CCNC(=O)c1cccc(-c2ccc(O)c3c2C[C@H]2C[C@H]4[C@@H](N(C)C)C(O)=C(C(N)=O)C(=O)[C@@]4(O)C(O)=C2C3=O)c1 [A] , its IC50 at 24 h was > 200 µM

// sample CN(C)CCNC(=O)c1ccc(O)c2c1C[C@H]1C[C@H]3[C@H](N(C)C)C(O)=C(C(N)=O)C(=O)[C@@]3(O)C(O)=C1C2=O [AH] , its IC50 at 24 h was > 126 µM

These data points were gathered from patent US20100022483A1.
